System: 454973-116-R2-J3-PDC complex spheroid viability
assay-explanation: Anticancer human tumor 454973-116-R2-J3-PDC patient-derived pancreatic carcinoma cell line growth inhibition [POLQ]
experimental-context: second compound 10 µM; first compound 3.16 µM; hits give low values
assay-metric: viability, T/C (%)

- compound: "COc1cc(C2c3cc4c(cc3C(OC3OC5COC(C)OC5C(O)C3O)C3COC(=O)C23)OCO4)cc(OC)c1O (stereo not given) + Nc1ccc(C#CCN(C(=O)Cc2ncc(C(F)(F)F)cc2C(F)(F)F)c2ccc(F)cc2)nn1"
  recorded-result: 10.6
- compound: "CC1COCCN1c1cc(-c2ccnn2C)c2ccnc(-c3ccn[nH]3)c2n1 (stereo not given) + COC1C(OC(N)=O)C(O)C(Oc2ccc3c(O)c(NC(=O)c4ccc(O)c(CC=C(C)C)c4)c(=O)oc3c2C)OC1(C)C"
  recorded-result: 25.9
- compound: "COc1cccc2c1C(=O)c1c(O)c3c(c(O)c1C2=O)CC(O)(C(=O)CO)CC3OC1CC(N)C(O)C(C)O1 (stereo not given) + COC1C(OC(N)=O)C(O)C(Oc2ccc3c(O)c(NC(=O)c4ccc(O)c(CC=C(C)C)c4)c(=O)oc3c2C)OC1(C)C"
  recorded-result: 1.62
- compound: "C=CC(=O)N1CCN(c2nc(=O)n(-c3c(C)ccnc3C(C)C)c3nc(-c4c(O)cccc4F)c(F)cc23)C(C)C1 (stereo not given) + Cc1cccc(N(C)C(=O)C2C(O)CCN2c2nc(C)cc(C(F)(F)F)c2C#N)c1"
  recorded-result: 111
- compound: "CC1COCCN1c1cc(C2(S(C)(=N)=O)CC2)nc(-c2ccnc3[nH]ccc23)n1 (stereo not given) + Nc1ccc(C#CCN(C(=O)Cc2ncc(C(F)(F)F)cc2C(F)(F)F)c2ccc(F)cc2)nn1"
  recorded-result: 55

====

System: 454973-116-R2-J3-PDC complex spheroid viability
assay-explanation: Anticancer human tumor 454973-116-R2-J3-PDC cell line growth inhibition [POLQ];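 also: spheroids exposed to drugs for seven days before measurement; percent viability relative to DMSO vehicle control wells taken as 100%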
experimental-context: second compound 3.16 µM; first compound 3.16 µM; hits give low values
Lab note: cut-off is 70%. Strictly less in viability, T/C is y. Exactly 70% or more is n.

- compound: "COc1cc(C2c3cc4c(cc3C(OC3OC5COC(C)OC5C(O)C3O)C3COC(=O)C23)OCO4)cc(OC)c1O (stereo not drawn) + COC1C(OC(N)=O)C(O)C(Oc2ccc3c(O)c(NC(=O)c4ccc(O)c(CC=C(C)C)c4)c(=O)oc3c2C)OC1(C)C"
  target: "454973-116-R2-J3-PDC complex spheroid viability"
  discrete-label: "y"
- compound: "O=C(Nc1ccc(O)c(NS(=O)(=O)c2ccc(F)cc2)c1)c1ccc(-c2ccccc2)cc1 + Cc1cccc(N(C)C(=O)C2C(O)CCN2c2nc(C)cc(C(F)(F)F)c2C#N)c1"
  target: "454973-116-R2-J3-PDC complex spheroid viability"
  discrete-label: "n"
- compound: "COc1ccc([C@@H](O)c2cc(-c3ncnc4cc(N5CCOCC5)ccc34)c(F)cc2Cl)nn1 + Cc1cccc(N(C)C(=O)C2C(O)CCN2c2nc(C)cc(C(F)(F)F)c2C#N)c1"
  target: "454973-116-R2-J3-PDC complex spheroid viability"
  discrete-label: "n"
- compound: "COc1ccc([C@@H](O)c2cc(-c3ncnc4cc(N5CCOCC5)ccc34)c(F)cc2Cl)nn1 + COC1C(OC(N)=O)C(O)C(Oc2ccc3c(O)c(NC(=O)c4ccc(O)c(CC=C(C)C)c4)c(=O)oc3c2C)OC1(C)C"
  target: "454973-116-R2-J3-PDC complex spheroid viability"
  discrete-label: "n"
- compound: "CC1COCCN1c1cc(-c2ccnn2C)c2ccnc(-c3ccn[nH]3)c2n1 (stereo not drawn) + Cc1cccc(N(C)C(=O)C2C(O)CCN2c2nc(C)cc(C(F)(F)F)c2C#N)c1"
  target: "454973-116-R2-J3-PDC complex spheroid viability"
  discrete-label: "y"
- compound: "Nc1ccn(C2OC(CO)C(O)C2(F)F)c(=O)n1 (stereo not drawn) + Nc1ccc(C#CCN(C(=O)Cc2ncc(C(F)(F)F)cc2C(F)(F)F)c2ccc(F)cc2)nn1"
  target: "454973-116-R2-J3-PDC complex spheroid viability"
  discrete-label: "y"

====

The following compounds are listed with their measured viability, T/C values.
Tested on: 454973-116-R2-J3-PDC complex spheroid viability
assay-explanation: Anticancer human tumor 454973-116-R2-J3-PDC cell line growth inhibition [POLQ];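 also: spheroids exposed to drugs for seven days before measurement; percent viability relative to DMSO vehicle control wells taken as 100%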
experimental-context: second compound 0.0316 µM; first compound 1 µM; hits give low values

- compound: "O=C(Nc1ccc(O)c(NS(=O)(=O)c2ccc(F)cc2)c1)c1ccc(-c2ccccc2)cc1 + COC1C(OC(N)=O)C(O)C(Oc2ccc3c(O)c(NC(=O)c4ccc(O)c(CC=C(C)C)c4)c(=O)oc3c2C)OC1(C)C"
  viability, T/C (%): 112
- compound: "Nc1ccn(C2OC(CO)C(O)C2(F)F)c(=O)n1 (stereo not given) + Cc1cccc(N(C)C(=O)C2C(O)CCN2c2nc(C)cc(C(F)(F)F)c2C#N)c1"
  viability, T/C (%): 12.5
- compound: "C#Cc1c(F)ccc2cc(O)cc(-c3ncc4c(N5CC6CCC(C5)N6)nc(OCC56CCCN5CC(F)C6)nc4c3F)c12 (stereo not given) + Nc1ccc(C#CCN(C(=O)Cc2ncc(C(F)(F)F)cc2C(F)(F)F)c2ccc(F)cc2)nn1"
  viability, T/C (%): 24.1
- compound: "CC(C)n1c(=O)n(C)c2cnc3cc(F)c(-c4ccc(OCCCN5CCCCC5)nc4)cc3c21 + Cc1cccc(N(C)C(=O)C2C(O)CCN2c2nc(C)cc(C(F)(F)F)c2C#N)c1"
  viability, T/C (%): 99.7
- compound: "CC1COCCN1c1cc(C2(S(C)(=N)=O)CC2)nc(-c2ccnc3[nH]ccc23)n1 (stereo not given) + Cc1cccc(N(C)C(=O)C2C(O)CCN2c2nc(C)cc(C(F)(F)F)c2C#N)c1"
  viability, T/C (%): 108

====

System: 454973-116-R2-J3-PDC complex spheroid viability
assay-explanation: Anticancer human tumor 454973-116-R2-J3-PDC cell line growth inhibition [POLQ];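 also: spheroids exposed to drugs for seven days before measurement; percent viability relative to DMSO vehicle control wells taken as 100%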
experimental-context: second compound 0.1 µM; first compound 3.16 µM; hits give low values
Entries and their viability, T/C values follow.

- compound: "O=C(Nc1ccc(O)c(NS(=O)(=O)c2ccc(F)cc2)c1)c1ccc(-c2ccccc2)cc1 + Cc1cccc(N(C)C(=O)C2C(O)CCN2c2nc(C)cc(C(F)(F)F)c2C#N)c1"
  viability, T/C, %: 102
- compound: "C#Cc1c(F)ccc2cc(O)cc(-c3ncc4c(N5CC6CCC(C5)N6)nc(OCC56CCCN5CC(F)C6)nc4c3F)c12 (stereo unspecified) + COC1C(OC(N)=O)C(O)C(Oc2ccc3c(O)c(NC(=O)c4ccc(O)c(CC=C(C)C)c4)c(=O)oc3c2C)OC1(C)C"
  viability, T/C, %: 39.8
- compound: "COc1ccc([C@@H](O)c2cc(-c3ncnc4cc(N5CCOCC5)ccc34)c(F)cc2Cl)nn1 + Nc1ccc(C#CCN(C(=O)Cc2ncc(C(F)(F)F)cc2C(F)(F)F)c2ccc(F)cc2)nn1"
  viability, T/C, %: 69.2
- compound: "CC1COCCN1c1cc(C2(S(C)(=N)=O)CC2)nc(-c2ccnc3[nH]ccc23)n1 (stereo unspecified) + Cc1cccc(N(C)C(=O)C2C(O)CCN2c2nc(C)cc(C(F)(F)F)c2C#N)c1"
  viability, T/C, %: 75.2
- compound: "COc1cc(C2c3cc4c(cc3C(OC3OC5COC(C)OC5C(O)C3O)C3COC(=O)C23)OCO4)cc(OC)c1O (stereo unspecified) + Cc1cccc(N(C)C(=O)C2C(O)CCN2c2nc(C)cc(C(F)(F)F)c2C#N)c1"
  viability, T/C, %: 24
- compound: "CC1COCCN1c1cc(C2(O)CC3CCC(C2)O3)c2cnn(-c3ccn[nH]3)c2n1 (stereo unspecified) + Nc1ccc(C#CCN(C(=O)Cc2ncc(C(F)(F)F)cc2C(F)(F)F)c2ccc(F)cc2)nn1"
  viability, T/C, %: 15.2
- compound: "CCc1cc2c(N3CCc4c(cc(Cn5ccnc5)cc4-c4cn(C)nc4C(F)(F)F)C3=O)ccnc2c(OC)n1 + Cc1cccc(N(C)C(=O)C2C(O)CCN2c2nc(C)cc(C(F)(F)F)c2C#N)c1"
  viability, T/C, %: 69.3
- compound: "CC1COCCN1c1cc(C2(O)CC3CCC(C2)O3)c2cnn(-c3ccn[nH]3)c2n1 (stereo unspecified) + Cc1cccc(N(C)C(=O)C2C(O)CCN2c2nc(C)cc(C(F)(F)F)c2C#N)c1"
  viability, T/C, %: 21.5
- compound: "COc1cccc2c1C(=O)c1c(O)c3c(c(O)c1C2=O)CC(O)(C(=O)CO)CC3OC1CC(N)C(O)C(C)O1 (stereo unspecified) + COC1C(OC(N)=O)C(O)C(Oc2ccc3c(O)c(NC(=O)c4ccc(O)c(CC=C(C)C)c4)c(=O)oc3c2C)OC1(C)C"
  viability, T/C, %: 0.52
- compound: "COc1cc2cc(C(=O)CCC(=O)O)sc2cc1OC + Cc1cccc(N(C)C(=O)C2C(O)CCN2c2nc(C)cc(C(F)(F)F)c2C#N)c1"
  viability, T/C, %: 92.6
- compound: "COc1cc2cc(C(=O)CCC(=O)O)sc2cc1OC + Nc1ccc(C#CCN(C(=O)Cc2ncc(C(F)(F)F)cc2C(F)(F)F)c2ccc(F)cc2)nn1"
  viability, T/C, %: 107
